pIC50 overview
Target: Induced myeloid leukemia cell differentiation protein Mcl-1 (Homo sapiens, UniProt Q07820)
Sequence (Q07820 whole entry): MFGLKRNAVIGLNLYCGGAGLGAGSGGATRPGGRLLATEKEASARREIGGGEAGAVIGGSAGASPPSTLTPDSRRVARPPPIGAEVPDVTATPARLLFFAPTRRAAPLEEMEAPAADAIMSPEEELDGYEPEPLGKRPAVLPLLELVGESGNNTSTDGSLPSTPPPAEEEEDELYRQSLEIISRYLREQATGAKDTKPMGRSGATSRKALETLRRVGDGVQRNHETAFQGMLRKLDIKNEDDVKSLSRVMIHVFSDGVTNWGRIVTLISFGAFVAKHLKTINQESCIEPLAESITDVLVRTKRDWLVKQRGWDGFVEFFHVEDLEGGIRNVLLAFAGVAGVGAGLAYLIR
Assay: Inhibition of human Mcl-1 protein by fluorescence polarization assay
Worth noting: pIC50 values are minus log10 of concentrations stated in mol/L.

# given-smiles, pIC50
rows = [
    ("CC(C)c1cc(C(=O)c2ccc(Oc3ccccc3)cc2)c(O)c(O)c1O", 5.51),
    ("O=C(c1ccc(Oc2ccccc2)cc1)c1cc(C(=O)c2nc3ccccc3s2)c(O)c(O)c1O", 6.51),
    ("CC(C)C(=O)c1cc(C(=O)c2ccc(Oc3ccccc3)cc2)c(O)c(O)c1O", 5.57),
    ("O=C(c1ccc(Oc2ccccc2)cc1)c1cc(C(=O)c2cccc3ccccc23)c(O)c(O)c1O", 5.92),
]

Next compound, please.
Record summary for CC(C)c1cc(C(=O)c2ccccc2)c(O)c(O)c1O : reported pIC50 = 4.44

---

Target: Induced myeloid leukemia cell differentiation protein Mcl-1 (Homo sapiens)
Assay: Inhibition of human Mcl-1 protein by fluorescence polarization assay
Field: label. Allowed values: MET (Ki < 300 nM) or NOT MET (Ki >= 300 nM).

Answered examples (4):
# given-smiles, study-system, group
data = [
    ("O=C(c1ccc(Oc2ccccc2)cc1)c1cc(C(=O)c2nc3ccccc3s2)c(O)c(O)c1O", "Induced myeloid leukemia cell differentiation protein Mcl-1 (Homo sapiens)", "MET"),
    ("CC(C)C(=O)c1cc(C(=O)c2ccc(Oc3ccccc3)cc2)c(O)c(O)c1O", "Induced myeloid leukemia cell differentiation protein Mcl-1 (Homo sapiens)", "NOT MET"),
    ("CC(C)c1cc(C(=O)c2ccccc2)c(O)c(O)c1O", "Induced myeloid leukemia cell differentiation protein Mcl-1 (Homo sapiens)", "NOT MET"),
    ("O=C(c1ccc(Oc2ccccc2)cc1)c1cc(C(=O)c2cccc3ccccc23)c(O)c(O)c1O", "Induced myeloid leukemia cell differentiation protein Mcl-1 (Homo sapiens)", "MET"),
]

Below: the item to evaluate.
Query block: Strictly below 300 nM: is that where Ki of CC(C)c1cc(C(=O)c2ccc(Oc3ccccc3)cc2)c(O)c(O)c1O sits?
Result block: NOT MET

---

Tested on: PC-3
Test: Growth inhibition of human PC3 cells after 4 days by WST-8 based assay
Format: functional, cell-based
Conditions: PC-3, 96 h
IC50 overview
Write down the numeric answer in µM and omit the unit.

Sample answers from the record:
# given-smiles, study-system, IC50 / µM
rows = [
    ("O=C(c1ccc(Oc2ccccc2)cc1)c1cc(C(=O)c2cccc3ccccc23)c(O)c(O)c1O", "PC-3", 0.55),
    ("CC(C)c1cc(C(=O)c2ccc(Oc3ccccc3)cc2)c(O)c(O)c1O", "PC-3", 12.4),
    ("Cc1cc2c(C(C)C)c(O)c(O)c(C=O)c2c(O)c1-c1c(C)cc2c(C(C)C)c(O)c(O)c(C=O)c2c1O", "PC-3", 2.5),
    ("CC(C)c1cc(C(=O)c2ccccc2)c(O)c(O)c1O", "PC-3", 39.3),
    ("CC(C)C(=O)c1cc(C(=O)c2ccc(Oc3ccccc3)cc2)c(O)c(O)c1O", "PC-3", 5.7),
]

Next molecule, please.
Record summary for O=C(c1ccc(Oc2ccccc2)cc1)c1cc(C(=O)c2nc3ccccc3s2)c(O)c(O)c1O : reported IC50 = 0.26
